Kindly state EC50, neutralization of spike pseudotyped virus for each of the entries shown.
- assayedTarget: SARS-COV-2 spike, Gamma variant (P.1) (SARS-COV-2, UniProt P0DTC2 14-1273)
- assayExplanation: cell-based or functional assay
Answers are plain numbers, in nM.

Some solved cases for reference:
Entry under test: BP1B1 Nb-huFc (Fc fusion) EVQLQASGGGFVQPGGSLRLSCAASGRTFSGYIMGWFRQAPGKEREFVSAISQGDSYASYYADSVKGRFTISRDNSKNTVYLQMNSLRAEDTATYYCALYDINTVPYYWGQGTQVTVSS . Its EC50, neutralization of spike pseudotyped virus was 3.68

Just so you know, measured EC50, neutralization of spike pseudotyped virus for BP2A3 Nb-huFc (Fc fusion) EVQLQASGGGFVQPGGSLRLSCAASGRTFSAYSMGWFRQAPGKEREFVSAISAGDGAASYYADSVKGRFTISRDNSKNTVYLQMNSLRAEDTATYYCAHYYTTSATLDYAYWGQGTQVTVSS came out at 3.73

Sample KP1C9 Nb-huFc (Fc fusion) EVQLQASGGGFVQPGGSLRLSCAASGRTFDAYSMGWFRQAPGKEREFVSAISSWSDDWTAYADSVKGRFTISRDNSKNTVYLQMNSLRAEDTATYYCALQNTKEDRLYWGQGTQVTVSS ; EC50, neutralization of spike pseudotyped virus observed: 80.2

Next up:
EC50, neutralization of spike pseudotyped virus reading for KP1B5 Nb-huFc (Fc fusion) EVQLQASGGGFVQPGGSLRLSCAASGFTFDWSAMGWFRQAPGKEREFVSAISSSTSESTTYADSVKGRFTISRDNSKNTVYLQMNSLRAEDTATYYCATYYGGKTVEQDFYWGQGTQVTVSS : 214
